Each recorded value in this set is attributed to ChEMBL document CHEMBL3259662.

test: Selectivity index, ratio of cytotoxicity for African green monkey Vero cells to IC50 for Cryptococcus neoformans ATCC 90113; type: toxicity, cell-based; conditions: read-out: Selectivity Index
Peptide text beside a SMILES is read from it. * marks the point of attachment. Boc = CC(C)(C)OC(=O)*; NHBn = c1ccc(CN*)cc1
Property: selectivity ratio; scope: individual compounds

Use the examples below as a reference point.
[[record]]
compound = "CC(C)(C)c1ccc(-c2nc(C[C@H](NC(=O)[C@@H](N)CCCNC(=N)N)C(=O)N[C@@H](CCCNC(=N)N)C(=O)NCc3ccccc3)c[nH]2)cc1"
property_measured = "selectivity ratio"
value = "> 143"

[[record]]
compound = "COC(=O)[C@H](CCCNC(=N)N)NC(=O)[C@H](Cc1c[nH]c(-c2ccc(C)cc2)n1)NC(=O)[C@H](CCCNC(=N)N)NC(=O)OC(C)(C)C"
property_measured = "selectivity ratio"
value = "> 1"

[[record]]
compound = "CC(C)(C)OC(=O)N[C@@H](CCCNC(=N)N)C(=O)N[C@@H](Cc1c[nH]c(-c2ccc(C(C)(C)C)cc2)n1)C(=O)N[C@@H](CCCNC(=N)N)C(=O)NCc1ccccc1"
property_measured = "selectivity ratio"
value = "> 55.6"

[[record]]
compound = "COC(=O)[C@H](CCCNC(=N)N)NC(=O)[C@H](Cc1c[nH]c(-c2ccc(OC)cc2)n1)NC(=O)[C@H](CCCNC(=N)N)NC(=O)OC(C)(C)C"
property_measured = "selectivity ratio"
value = "> 2.5"

[[record]]
compound = "Cc1ccc(-c2nc(C[C@H](NC(=O)[C@H](CCCNC(=N)N)NC(=O)OC(C)(C)C)C(=O)N[C@@H](CCCNC(=N)N)C(=O)NCc3ccccc3)c[nH]2)cc1"
property_measured = "selectivity ratio"
value = "> 4.6"

[[record]]
compound = "COC(=O)[C@H](CCCNC(=N)N)NC(=O)[C@H](Cc1c[nH]c(-c2ccc(OC)cc2)n1)NC(=O)[C@@H](N)CCCNC(=N)N"
property_measured = "selectivity ratio"
value = "> 2.5"

[[record]]
compound = "N=C(N)NCCC[C@H](NC(=O)[C@H](Cc1c[nH]c(-c2ccccc2)n1)NC(=O)[C@@H](N)CCCNC(=N)N)C(=O)NCc1ccccc1"
property_measured = "selectivity ratio"
value = "> 13.7"

[[record]]
compound = "CC(C)(C)OC(=O)N[C@@H](CCCNC(=N)N)C(=O)N[C@@H](Cc1c[nH]c(-c2ccc(-c3ccccc3)cc2)n1)C(=O)N[C@@H](CCCNC(=N)N)C(=O)NCc1ccccc1"
property_measured = "selectivity ratio"
value = "> 50"

[[record]]
compound = "COc1ccc(-c2nc(C[C@H](NC(=O)[C@@H](N)CCCNC(=N)N)C(=O)N[C@@H](CCCNC(=N)N)C(=O)NCc3ccccc3)c[nH]2)cc1"
property_measured = "selectivity ratio"
value = "> 23.3"

[[record]]
compound = "COC(=O)[C@H](CCCNC(=N)N)NC(=O)[C@H](Cc1c[nH]c(-c2ccc(C(C)(C)C)cc2)n1)NC(=O)[C@@H](N)CCCNC(=N)N"
property_measured = "selectivity ratio"
value = "> 16.3"


Memo: COC(=O)[C@H](CCCNC(=N)N)NC(=O)[C@H](Cc1c[nH]c(-c2ccc(-c3ccccc3)cc2)n1)NC(=O)[C@@H](N)CCCNC(=N)N , reported selectivity ratio: > 16.9

Memo: CC(C)(C)OC(=O)N[C@@H](CCCNC(=N)N)C(=O)N[C@@H](Cc1c[nH]c(-c2ccccc2)n1)C(=O)N[C@@H](CCCNC(=N)N)C(=O)NCc1ccccc1 , reported selectivity ratio: > 14.9

Memo: CC(C)(C)OC(=O)N[C@@H](CCCNC(=N)N)C(=O)N[C@@H](Cc1c[nH]cn1)C(=O)N[C@@H](CCCNC(=N)N)C(=O)NCc1ccccc1 (Boc-Arg-His-Arg-NHBn) , reported selectivity ratio: > 1.8
